Data credit: patent US7332501B2

Target: human V1a receptor (Homo sapiens, UniProt P37288)
Construct: expressed in transfected cells; host or cells: HEK293 cells, transiently transfected; cell membranes
Sequence (P37288 whole entry): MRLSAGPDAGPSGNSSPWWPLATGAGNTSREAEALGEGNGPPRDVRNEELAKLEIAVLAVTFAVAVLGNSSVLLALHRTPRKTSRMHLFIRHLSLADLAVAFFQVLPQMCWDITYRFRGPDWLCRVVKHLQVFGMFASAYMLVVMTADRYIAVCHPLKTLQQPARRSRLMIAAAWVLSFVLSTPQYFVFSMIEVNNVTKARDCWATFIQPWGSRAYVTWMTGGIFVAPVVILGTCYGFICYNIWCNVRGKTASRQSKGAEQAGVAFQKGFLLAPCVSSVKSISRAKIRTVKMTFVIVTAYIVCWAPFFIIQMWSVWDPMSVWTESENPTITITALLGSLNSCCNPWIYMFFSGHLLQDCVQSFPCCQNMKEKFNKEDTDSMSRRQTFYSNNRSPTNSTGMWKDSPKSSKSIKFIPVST
Assay: human V1a receptor binding (3H-Vasopressin SPA, HEK293 membranes)
Details: displacement of 4 nM 3H-Vasopressin, membranes of HEK293 cells transiently transfected with human V1a receptor; Ki from IC50 by Cheng-Prussoff
Reported pKi values are given for each entry in this list.
On this scale, pKi is minus log10 of a concentration expressed in M (mol/L).

- COMPOUND: "COCC1(Cn2cc(C(=O)N3CCC4(CC3)OC(=O)c3ccccc34)c3ccc(Cl)cc32)CC1"
  pKi: 8.62
- COMPOUND: "O=C(Cn1cc(C(=O)N2CCC3(CC2)OCc2ccccc23)c2ccc(Cl)cc21)c1ccccc1F"
  pKi: 8.89
- COMPOUND: "NC(=O)c1[nH]c2cc(Cl)ccc2c1C(=O)N1CCC2(CC1)OC(=O)c1cc(F)ccc12"
  pKi: 7.69

Look up human V1a receptor (Homo sapiens, UniProt P37288) data: pKi of Cc1c(C(=O)N2CCC3(CC2)OC(=O)c2cc(F)ccc23)c2ccccc2n1Cc1ccccc1 , then report it.
7.96

Look up human V1a receptor (Homo sapiens, UniProt P37288) data: pKi of O=C(c1cn(CCO)c2cc(Cl)ccc12)N1CCC2(CC1)OCc1ccccc12 , then report it.
8.59

Look up human V1a receptor (Homo sapiens, UniProt P37288) data: pKi of CS(=O)(=O)NCCn1cc(C(=O)N2CCC3(CC2)OCc2ccccc23)c2ccc(Cl)cc21 , then report it.
8.82

* * *

Consider compounds characterized by their Ki with human V1a receptor (Homo sapiens, UniProt P37288).
Report only the number, with the unit nM understood.

Some compounds with known Ki results, for comparison:
- STRUCTURE: "COc1ccc2c(c1)C1(CCN(C(=O)c3c(C)n(Cc4ccccc4)c4ccccc34)CC1)OC2=O"
  VALUE UNITS: "nM"
  Ki: 3.4
- STRUCTURE: "Cc1c(C(=O)N2CCC3(CC2)CNc2ccccc23)c2ccccc2n1Cc1ccccc1"
  VALUE UNITS: "nM"
  Ki: 9.7
- STRUCTURE: "CN1CCN(C(=O)Cn2cc(C(=O)N3CCC4(CC3)OCc3ccccc34)c3ccc(Cl)cc32)CC1"
  VALUE UNITS: "nM"
  Ki: 1.2
- STRUCTURE: "O=C(c1cn(Cc2cccc(F)c2)c2cc(Cl)ccc12)N1CCC2(CC1)OCc1ccccc12"
  VALUE UNITS: "nM"
  Ki: 1
- STRUCTURE: "CN(C)CCNC(=O)Cn1cc(C(=O)N2CCC3(CC2)OCc2ccccc23)c2ccc(Cl)cc21"
  VALUE UNITS: "nM"
  Ki: 2.4
- STRUCTURE: "Cc1c(C(=O)N2CCC3(CCc4ccccc43)CC2)c2ccccc2n1Cc1ccccc1"
  VALUE UNITS: "nM"
  Ki: 16.2
- STRUCTURE: "CCN(CC)CCn1cc(C(=O)N2CCC3(CC2)COc2ccccc23)c2ccc(Cl)cc21"
  VALUE UNITS: "nM"
  Ki: 10.2
- STRUCTURE: "CC(=O)N(C)CCn1cc(C(=O)N2CCC3(CC2)OCc2ccccc23)c2ccc(Cl)cc21"
  VALUE UNITS: "nM"
  Ki: 1.3

# return recorded Ki for input N#CCC1(Cn2cc(C(=O)N3CCC4(CC3)OC(=O)c3cc(F)ccc34)c3ccc(Cl)cc32)CC1
2.8

# return recorded Ki for input Cc1c(C(=O)N2CCC3(CC2)OCc2ccccc23)c2ccccc2n1CC1CCCCC1
0.8

# return recorded Ki for input Cc1c(C(=O)N2CCC3(CC2)OC(=O)c2cc4c(cc23)OCO4)c2ccccc2n1Cc1ccccc1
2.1

# return recorded Ki for input O=C(c1cn(Cc2cccnc2)c2cc(Cl)ccc12)N1CCC2(CC1)OCc1ccccc12
1.7

# return recorded Ki for input Cn1cncc1Cn1cc(C(=O)N2CCC3(CC2)OCc2ccccc23)c2ccc(Cl)cc21
1.9

# return recorded Ki for input Cc1cc(Cn2cc(C(=O)N3CCC4(CC3)OC(=O)c3cc(F)ccc34)c3ccc(Cl)cc32)on1
3.4

# return recorded Ki for input O=C(c1cn(Cc2cccc(F)c2)c2cc(Cl)ccc12)N1CCC2(CC1)CNc1ccccc12
4.1

# return recorded Ki for input O=C1OC2(CCN(C(=O)c3cn(CC4(F)COC4)c4cc(Cl)ccc34)CC2)c2ccc(F)cc21
1.6
